Data credit: PubChem BioAssay (EPA / NIEHS)

- Read-out: CYP3A5 (gene 1577)
- TEST_SUMMARY: LTEA_HepaRG_CYP3A5: Life Technologies and Expression Analysis (LTEA) Assay for CYP3A5 using HepaRG (AID 2283493)
- CONDITIONS_USED: mRNA level, 48 h; actives raise or lower the signal
The source made the active and inactive calls. The calls were made as follows: active = hit-call score of the fitted dose curve at least 0.9, where 1 is the maximum; inactive = score below 0.9.
Form entry, call: pick from active, inactive

Check out these entries, answers already filled in.
COMPOUND: CC(=O)Nc1ccc(O)cc1
CLASS_NAME: inactive
//
COMPOUND: Cc1[nH]nc2c1N=C(c1ccccc1Cl)c1cc([N+](=O)[O-])ccc1N2
CLASS_NAME: active
//
COMPOUND: CCCCCCCCCCCCCCC
CLASS_NAME: inactive
//
COMPOUND: OCC(CO)(CBr)CBr
CLASS_NAME: inactive

Now, please, on to the next compound.
Asked: Short answer needed: outcome of this test for CCCCC(CC)C(=O)O (stereo not given) ?
Given back: inactive

###

- Read-out: Insulin-like growth factor-binding protein 1 (IGFBP1), IGFBP1 (gene 3484)
- TEST_SUMMARY: LTEA_HepaRG_IGFBP1: Life Technologies and Expression Analysis (LTEA) Assay for Insulin-like growth factor-binding protein 1 (IGFBP1) using HepaRG (AID 2283508)
- CONDITIONS_USED: mRNA level, 48 h; actives raise or lower the signal
- Description: LTEA_HepaRG is a cell based, multiplexed-readout assay that uses HepaRG, a human liver cell line, with measurements taken at 48 hours after chemical dosing on a 96-well plate.LTEA_HepaRG_IGFBP1 is one of 102 assay component(s) measured in the LTEA HepaRG cell culture assay. It is a marker of Cell proliferation, survival, death.Data from the assay component LTEA_HepaRG_IGFBP1 was analyzed into 1 endpoint. […]
Active and inactive are the calls of the source. How the source made its calls: active means hit-call score of the fitted dose curve at least 0.9, where 1 is the maximum; inactive means score below 0.9.
ASSAY_METRIC: AC50

SMILES_STRUCTURE: O=C1NS(=O)(=O)c2ccccc21
ASSAY_RESULT: inactive
--
SMILES_STRUCTURE: CN(C)CCOC(c1ccccc1)c1ccccc1
ASSAY_RESULT: inactive
--
SMILES_STRUCTURE: CCCCC=O
ASSAY_RESULT: inactive
--
SMILES_STRUCTURE: CCCCCCCCCCCCCCC
ASSAY_RESULT: inactive

Asked: Give recorded AC50. "O=C(c1ccccc1)c1ccccc1"
Given back: inactive

Asked: Give recorded AC50. "CN(Cc1cnc2nc(N)nc(N)c2n1)c1ccc(C(=O)N[C@@H](CCC(=O)O)C(=O)O)cc1"
Given back: inactive

Asked: Give recorded AC50. "CS(=O)(=O)c1ccc([C@@H](CC2CCCC2)C(=O)Nc2cnccn2)cc1Cl"
Given back: 75.2 µM (active)

Asked: Give recorded AC50. "CCCCc1oc2ccccc2c1C(=O)c1cc(I)c(OCCN(CC)CC)c(I)c1"
Given back: 54 µM (active)

Asked: Give recorded AC50. "O=C(CCCN1CCC(O)(c2ccc(Cl)cc2)CC1)c1ccc(F)cc1"
Given back: 71.1 µM (active)

###

- Read-out: CD40, CD40 (gene 958)
- TEST_SUMMARY: BSK_SAg_CD40: BioMAP Diversity Plus: SAg Assay for CD40 Biomarker Activity (AID 2283088)
- CONDITIONS_USED: primary human HUVEC with PBMC; actives raise or lower the signal
The source made the active and inactive calls. How the source made its calls: active means hit-call score of the fitted dose curve at least 0.9, where 1 is the maximum; inactive means score below 0.9.
Form entry, call: pick from 1 = active, 0 = inactive

Check out these entries, answers already filled in.
SMILES_STRUCTURE: O=C(c1ccccc1)c1ccccc1
CLASS_NAME: 0

SMILES_STRUCTURE: O=C(CCCN1CCC(O)(c2ccc(Cl)cc2)CC1)c1ccc(F)cc1
CLASS_NAME: 0

SMILES_STRUCTURE: O=C(O)CCC(F)(F)C(F)(F)C(F)(F)C(F)(F)C(F)(F)C(F)(F)F
CLASS_NAME: 0

SMILES_STRUCTURE: NC(=NCCCCCCN=C(N)/N=C(\N)Nc1ccc(Cl)cc1)/N=C(\N)Nc1ccc(Cl)cc1
CLASS_NAME: 1

SMILES_STRUCTURE: CCCCCCCCCCCCCCC
CLASS_NAME: 0

Now, please, on to the next compound.
Asked: Short answer needed: outcome of this test for "CCCCc1oc2ccccc2c1C(=O)c1cc(I)c(OCCN(CC)CC)c(I)c1" ?
Given back: 1
